Tested on: CAKI-1 renal
Test: NCI tumour cell line growth inhibition, 48 h
MEASURED QUANTITY: TGI

# annotated cases, reported TGI shown
Ask: Quick check: TGI of O=C(O)c1ccc(-c2nc3ccc(Cl)cc3[nH]2)cc1 ?
Reply: > 100 µM

Ask: CN(C)c1nc2n(CCO)c(-c3ccccc3)c(-c3ccccc3)nc-2c(=O)n1 ?
Reply: > 100 µM

Ask: Next up: CCSC1(SCC)CC(Cc2ccc(OC)cc2)N(C=NC(C)(C)C)C1 (stereo unspecified)
Reply: > 100 µM

Ask: C[C@]12CCc3nonc3C1CC[C@@H]1C2CC[C@]2(C)NC(=O)CCC12 (stereo partly specified) , same question.
Reply: > 100 µM

Ask: Similarly, CC1CCC(O)(C(C)(C(=O)O)c2ccccc2)CC1 (stereo unspecified) ?
Reply: > 100 µM

Shifting focus to the compound that follows.
Ask: Given the entry CN(C)c1ccc(/C=C(\C#N)c2nc3ccccc3n2C)cc1 , report its measured TGI.
Reply: > 90.6 µM

Every entry's value here was drawn from PubChem BioAssay (NCI).
